Source listed as patent US9328099B2.

Biological target: JAK1 (Homo sapiens (Human), UniProt P23458)
Sequence (P23458 875-1153): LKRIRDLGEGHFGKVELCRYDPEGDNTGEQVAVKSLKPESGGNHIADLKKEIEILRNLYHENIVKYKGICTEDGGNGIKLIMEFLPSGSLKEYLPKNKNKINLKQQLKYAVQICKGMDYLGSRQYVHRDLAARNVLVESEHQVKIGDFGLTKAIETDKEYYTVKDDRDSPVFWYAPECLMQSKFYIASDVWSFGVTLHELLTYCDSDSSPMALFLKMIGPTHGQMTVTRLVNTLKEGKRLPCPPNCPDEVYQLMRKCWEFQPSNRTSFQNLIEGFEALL
Test: Jak Biochemical HTRF Assay, JAK1
Settings: HTRF biochemical assay, GST-tagged catalytic domain; top concentration tested […]; read-out: JAK1 IC50
pIC50: −log10 of the molar value.
PROPERTY_MEASURED: pIC50

Reference set, count: 6
[
  {
    "COMPOUND": "N#CCC1(n2cc(C(N)=O)c(Nc3ccc(C4CC4)nc3)n2)CCN(C(=O)OCC(F)F)CC1 [Example 9-40]",
    "pIC50": 9.15
  },
  {
    "COMPOUND": "N#CCC1(n2cc(C(N)=O)c(Nc3ccccc3)n2)CCN(C(=O)OC2CCOCC2)CC1 [Example 30-37]",
    "pIC50": 8.52
  },
  {
    "COMPOUND": "N#CCC1(n2cc(C(N)=O)c(Nc3ccccc3)n2)CCN(C(=O)OCc2cccc(F)c2)CC1 [Example 30-32]",
    "pIC50": 8.40
  },
  {
    "COMPOUND": "CCc1cccc(NC(=O)N2CC(CC#N)(n3cc(C(N)=O)c(Nc4ccccc4)n3)C2)c1 [Example 38-35]",
    "pIC50": 8.10
  },
  {
    "COMPOUND": "N#CCC1(n2cc(C(N)=O)c(Nc3ccnc(F)c3)n2)CCN(Cc2cnccn2)CC1 [Example 22-14]",
    "pIC50": 9.22
  },
  {
    "COMPOUND": "N#CC[C@@]1(n2cc(C(N)=O)c(Nc3ccnc(F)c3)n2)CCN(C(=O)OCC(F)F)C[C@@H]1F [Example 46]",
    "pIC50": 10.52
  }
]

1 = N#CCC1(n2cc(C(N)=O)c(Nc3ccccc3)n2)CCN(C(=O)OCc2ccncc2)CC1 [Example 30-40]
2 = CC(C)NC(=O)N1CCC(CC#N)(n2cc(C(N)=O)c(Nc3ccc(S(=O)(=O)C(F)(F)F)cc3)n2)CC1 [Example 38-44]
Field: lower pIC50 | Options: 1 / 2 Refer to your chosen entry by its label in the reply. 1
